Target: Rabies virus glycoprotein G, Challenge Virus Standard (CVS)-11 strain (Rabies virus, strain CVS-11 (genotype 1 Lyssavirus)) (UniProt O92284)
Sequence (O92284 20-524 limits assumed): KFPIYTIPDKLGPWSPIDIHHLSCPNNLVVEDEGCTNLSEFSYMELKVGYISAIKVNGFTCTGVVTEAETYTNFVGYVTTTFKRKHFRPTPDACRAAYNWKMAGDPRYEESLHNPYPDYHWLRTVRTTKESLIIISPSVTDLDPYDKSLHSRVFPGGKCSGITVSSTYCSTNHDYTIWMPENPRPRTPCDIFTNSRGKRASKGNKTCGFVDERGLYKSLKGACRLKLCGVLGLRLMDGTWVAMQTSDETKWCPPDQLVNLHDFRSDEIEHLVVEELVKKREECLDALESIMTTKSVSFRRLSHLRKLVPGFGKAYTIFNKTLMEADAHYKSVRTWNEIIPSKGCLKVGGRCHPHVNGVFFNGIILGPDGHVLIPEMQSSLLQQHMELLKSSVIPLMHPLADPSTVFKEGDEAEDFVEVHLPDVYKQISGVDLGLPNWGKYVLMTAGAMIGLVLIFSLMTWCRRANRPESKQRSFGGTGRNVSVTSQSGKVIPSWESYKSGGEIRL
Test: cell-based or functional assay
Quick list: CVS-11 neutralizing antibody titer (RFFIT), IU/µM per entry.
Please state the figure in IU/µM; there is no need to write the unit.

Here's what some known entries look like.
>  <Binder>
LG214H10 (VHH) VHH: EVQLVESGGGSVQAGGSLRLSCAASGGTFNPYVMAWFRQAPGNEREFVARIRWSGGDAYYDDSVKGRFAITRDAAKNTVHLQMNSLKPEDTAVYYCAAATYGYGSYTYGGSYDLWGQGTQVTVSS

>  <Assay value>
0.12

$$$$
>  <Binder>
LG212F6 (VHH) VHH: EVQLVESGGGLVQPGGSLRLSCAASGFTFGSYDMSWVRQAPGKGSEWVSHINTGGGSTTYADSVKGRFTISRDNAKNTLYLQMSSLKPEDTAVYYCATGLYGGSTDDYWGQGTQVTVSS

>  <Assay value>
1.71

$$$$
>  <Binder>
LG213H7 (VHH) VHH: EVQLVESGGGLVQAGGSLRLSCAASGRTLSSYRMGWFRQAPGKEREFISTISWNGRSTYYADSVKGRFIFSEDNAKNTVYLQMNSLKPEDTAVYYCAAALIGGYYSDVDAWSYWGPGTQVTVSS

>  <Assay value>
0.18

$$$$
>  <Binder>
LG212B2 (VHH) VHH: EMQLVESGGGLVQAGDSLRLSCAASGDTFSWYVMAWFRQAPGKEREFVTWINRSGASTYYADSVKGRFTIFRDNDKNTVYLQMNSLKPEDTAVYYCAAGGFYGLRTTEERYDTWGQGTQVTVSS

>  <Assay value>
0.05

$$$$

Lookup result for LG214F8 (VHH) VHH: EVQLVESGGDLVQAGGSLRLSCVASGSTYSINAMGWYRQAPGKLRELVAAFRTGGSTDYADSVKGRFTISRDTAKNTVYLQMNSLKPEDTAVYYCNAEVIYYPYDYWGQGTQVTVSS ; measured CVS-11 neutralizing antibody titer (RFFIT), IU/µM: 0.11

Lookup result for LG214E8 (VHH) VHH: EVQLVESGGGSVQAGGSLRLSCAASGGTFNPYVMAWFRQAPGNEREFVARIRWSGGDAYYDDSVKGRFAITRDAAKNTVHLQMNSLKPEDTAVYYCAAATYGYGSYTYGGSYDLWGQGTQVTVSS ; measured CVS-11 neutralizing antibody titer (RFFIT), IU/µM: 0.14

Lookup result for LG212A2 (VHH) VHH: EVQLVESGGGLVQAGGSLRLSCAASGRTFDTYFVGWFRQAPGKERDFVAAISWSGDRTFYADSVKGRFTISRDNAKNTEYLQMNSLKPEDTAVYYCAAREYGRLYSDSEAYDYWGQGTQVTVSS ; measured CVS-11 neutralizing antibody titer (RFFIT), IU/µM: 0.03
